molecular target: TDP-43 aggregates in human FTD sarkosyl-insoluble brain extracts (Homo sapiens, UniProt Q13148); construct: A sample of brain tissue (frontal or temporal cortex) was homogenized; from tissue; host or cells: human FTD patient brain, frontal or temporal cortex, sarkosyl-insoluble fraction; experiment: Kd determination with micro-radiobinding (saturation) assay on human FTD sarkosyl insoluble brain extract; type: binding; details: data from two independent experiments; human FTD sarkosyl-insoluble brain extracts; read-out: average Kd
Sequence (Q13148 whole entry): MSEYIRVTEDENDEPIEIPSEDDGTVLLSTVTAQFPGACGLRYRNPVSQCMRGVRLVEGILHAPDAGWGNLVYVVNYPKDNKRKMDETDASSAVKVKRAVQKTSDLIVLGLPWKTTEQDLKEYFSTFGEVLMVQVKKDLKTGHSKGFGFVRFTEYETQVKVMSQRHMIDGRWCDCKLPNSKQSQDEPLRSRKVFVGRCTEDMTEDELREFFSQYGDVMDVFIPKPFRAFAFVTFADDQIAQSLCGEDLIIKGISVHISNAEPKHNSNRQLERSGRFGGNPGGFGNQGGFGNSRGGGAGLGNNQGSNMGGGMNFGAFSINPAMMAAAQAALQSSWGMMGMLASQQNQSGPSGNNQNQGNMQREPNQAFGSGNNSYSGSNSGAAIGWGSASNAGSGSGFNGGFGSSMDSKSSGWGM
pKd: −log10 of the molar value.
readoutLabel: pKd

>>> reading("O=C(Nc1ccc(F)nc1)c1cnc(-c2ccc(N3CC[C@@H](F)C3)nc2)s1 [[^3H]-Compound 1]")
7.28

* * *

Catalogue of compounds with associated pKd
biological target: TDP-43 aggregates in human FTD sarkosyl-insoluble brain extracts (Homo sapiens, UniProt Q13148); construct: A sample of brain tissue (frontal or temporal cortex) was homogenized; from tissue; host or cells: human FTD patient brain, frontal or temporal cortex, sarkosyl-insoluble fraction; experiment: Kd determination with micro-radiobinding (saturation) assay on human FTD sarkosyl insoluble brain extract; assay type: binding; details: different batch of FTD sarkosyl-insoluble brain extracts; read-out: Kd (dissociation constant)
pKd: −log10 of the molar value.
readoutLabel: pKd

>>> reading("O=C(Nc1cnsc1)c1cnc(-c2ccc(N3CC[C@@H](F)C3)nc2)s1 [[^3H]-Compound 4]")
7.29
>>> reading("O=C(Nc1ccncc1)c1cnc(-c2cnc(N3CC[C@H](F)C3)nc2)s1 [[^3H]-Compound 8]")
7.12

* * *

biological target: Human brain derived TDP-43 aggregates (Homo sapiens, UniProt Q13148); construct: A sample of brain tissue (frontal or temporal cortex) was homogenized; from tissue; host or cells: human FTD patient brain, frontal or temporal cortex, sarkosyl-insoluble fraction; assay: Micro-radiobinding competition assay against [3H]-Compound 1; type: binding; conditions: compound at 125 nM; [3H]-Compound 1 at 50 nM
Catalogue of molecules with associated Human brain derived TDP-43 aggregates Mean % competition at 125 nM
readoutLabel: Human brain derived TDP-43 aggregates Mean % competition at 125 nM (%)

>>> reading("O=C(Nc1cncnc1)c1sc(-c2ccc(N3CC[C@@H](F)C3)nc2)nc1F [Compound 14]")
38
>>> reading("O=C(Nc1ccc(F)nc1)c1sc(-c2ccc(N3CC[C@@H](F)C3)nc2)nc1F [Compound 13]")
42
>>> reading("O=C(Nc1cncc(F)c1)c1sc(-c2ccc(N3CC[C@@H](F)C3)nc2)nc1F [Compound 12]")
43
>>> reading("O=C(Nc1cncc(F)c1)c1cnc(-c2ccc(N3CC[C@@H](F)C3)nc2)s1 [Compound 11]")
65

* * *

molecular target: Human brain derived TDP-43 aggregates (Homo sapiens, UniProt Q13148); construct: A sample of brain tissue (frontal or temporal cortex) was homogenized; from tissue; host or cells: human FTD patient brain, frontal or temporal cortex, sarkosyl-insoluble fraction; assay: Micro-radiobinding competition assay against [3H]-Compound 1; assay type: binding; settings: compound at 1 μM; [3H]-Compound 1 at 50 nM (40 nM for compound 15)
Catalogue of molecules with associated Human brain derived TDP-43 aggregates Mean % competition at 1 μM
readoutLabel: Human brain derived TDP-43 aggregates Mean % competition at 1 μM (%)

>>> reading("O=C(Nc1cnsc1)c1sc(-c2ccc(N3CC[C@@H](F)C3)nc2)nc1F")
92
>>> reading("O=C(Nc1cncc(F)c1)c1sc(-c2ccc(N3CC[C@@H](F)C3)nc2)nc1F")
50
>>> reading("O=C(Nc1ccc(F)nc1)c1sc(-c2ccc(N3CC[C@@H](F)C3)nc2)nc1F")
75
>>> reading("O=C(Nc1cncnc1)c1sc(-c2ccc(N3CC[C@@H](F)C3)nc2)nc1F")
77
>>> reading("O=C(Nc1cncc(F)c1)c1cnc(-c2ccc(N3CC[C@@H](F)C3)nc2)s1")
80

* * *

target: Human brain derived TDP-43 aggregates (Homo sapiens, UniProt Q13148); construct: A sample of brain tissue (frontal or temporal cortex) was homogenized; experiment: Micro-radiobinding competition assay against [3H]-Compound 1; conditions: 0.24 nM to 2 μM; [3H]-Compound 1 at 50 nM (40 nM for compound 15)
pKi: −log10 of the molar value.
The label depends only on pKi: true if it is at least 7, false if it is smaller.

>>> class("O=C(Nc1cncc(F)c1)c1sc(-c2ccc(N3CC[C@@H](F)C3)nc2)nc1F")
"false"
>>> class("O=C(Nc1cncc(F)c1)c1cnc(-c2ccc(N3CC[C@@H](F)C3)nc2)s1")
"true"
>>> class("O=C(Nc1cnsc1)c1sc(-c2ccc(N3CC[C@@H](F)C3)nc2)nc1F")
"true"

* * *

Target: FTD patient brain-derived TDP-43 aggregates (Homo sapiens)
Construct: A sample of brain tissue (frontal or temporal cortex) was homogenized; from tissue; host or cells: human FTD patient brain, frontal or temporal cortex, sarkosyl-insoluble fraction
Experiment: Micro-radiobinding competition assay against [3H]-reference ligand
Assay type: binding
Details: compound at 1 μM; tritiated reference ligand at 25 nM
Protocol: Human brain extracts were prepared as described in Laferriere et al., 2019, Nature Neurosc. […] Brain homogenates were thawed on ice and resuspended in HS buffer to obtain a final concentration of 2% sarkosyl, 1 unit/μL Benzonase and 1 mM MgCl2. […] The samples were analyzed by immunoblotting in denaturing conditions. Human FTD sarkosyl-insoluble brain extracts were spotted onto microarray slides. […] Quantification of the signal was performed by using the Beamage image analysis software (ai4R). […]
Catalogue of molecules with associated Human brain derived TDP-43 aggregates Mean % competition at 1 μM
readoutLabel: Human brain derived TDP-43 aggregates Mean % competition at 1 μM (%)

>>> reading("O=C(Nc1cnc(F)nc1)c1cnc(-c2ccc(N3CC[C@@H](F)C3)nc2)s1 [Compound 6]")
83
>>> reading("O=C(Nc1cnc(F)cn1)c1cnc(-c2ccc(N3CC[C@@H](F)C3)nc2)s1 [Compound 5]")
70
>>> reading("O=C(Nc1cnsc1)c1cnc(-c2ccc(N3CC[C@@H](F)C3)nc2)s1 [Compound 4]")
94
>>> reading("O=C(Nc1ccc(F)nc1)c1cnc(-c2ccc(N3CC[C@@H](F)C3)cc2)s1 [Compound 10]")
70
>>> reading("O=C(Nc1ccc(F)nc1)c1cnc(-c2ccc(N3CC[C@@H](F)C3)nc2)s1 [Compound 1]")
102
>>> reading("O=C(Nc1ccncc1)c1cnc(-c2cnc(N3CC[C@@H](F)C3)cn2)s1 [Compound 9]")
83
>>> reading("O=C(Nc1ccncc1)c1cnc(-c2cnc(N3CC[C@H](F)C3)nc2)s1 [Compound 8]")
78
>>> reading("Nc1cc(NC(=O)c2cnc(-c3ccc(N4CC[C@H](F)C4)nc3)s2)ccc1F [Compound 7]")
80

* * *

target: FTD patient brain-derived TDP-43 aggregates (Homo sapiens, UniProt Q13148); construct: A sample of brain tissue (frontal or temporal cortex) was homogenized; from tissue; host or cells: human FTD patient brain, frontal or temporal cortex, sarkosyl-insoluble fraction; assay: Micro-radiobinding competition assay against [3H]-reference ligand; format: binding; settings: compound at 125 nM; tritiated reference ligand at 25 nM
The label depends only on Human brain derived TDP-43 aggregates Mean % competition at 125 nM: true if it is at least 50%, false if it is smaller.

>>> class("Nc1cc(NC(=O)c2cnc(-c3ccc(N4CC[C@H](F)C4)nc3)s2)ccc1F")
"true"
>>> class("O=C(Nc1cnsc1)c1cnc(-c2ccc(N3CC[C@@H](F)C3)nc2)s1")
"true"
>>> class("O=C(Nc1ccc(F)nc1)c1cnc(-c2ccc(N3CC[C@@H](F)C3)cc2)s1")
"true"
>>> class("O=C(Nc1ccc(F)nc1)c1cnc(-c2ccc(N3CC[C@@H](F)C3)nc2)s1")
"true"
>>> class("O=C(Nc1ccncc1)c1cnc(-c2cnc(N3CC[C@@H](F)C3)cn2)s1")
"true"
>>> class("O=C(Nc1ccncc1)c1cnc(-c2cnc(N3CC[C@H](F)C3)nc2)s1")
"false"
>>> class("O=C(Nc1cnc(F)nc1)c1cnc(-c2ccc(N3CC[C@@H](F)C3)nc2)s1")
"false"
>>> class("O=C(Nc1cnc(F)cn1)c1cnc(-c2ccc(N3CC[C@@H](F)C3)nc2)s1")
"true"
